These measurements were taken from patent US20250340529A1.

Assayed Target: PD-L1/CHO-K1 cells (Homo sapiens (Human))
Sequence (Q9NZQ7 19-290): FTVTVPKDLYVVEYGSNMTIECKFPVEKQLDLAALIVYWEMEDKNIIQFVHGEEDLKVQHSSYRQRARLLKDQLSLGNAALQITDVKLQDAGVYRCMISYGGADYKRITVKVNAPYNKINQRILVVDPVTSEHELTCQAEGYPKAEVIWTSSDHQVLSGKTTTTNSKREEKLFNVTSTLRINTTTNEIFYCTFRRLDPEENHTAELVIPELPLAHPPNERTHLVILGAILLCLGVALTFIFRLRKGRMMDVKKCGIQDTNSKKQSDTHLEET
Protocol: PD-L1 internalization (FACS, PD-L1/CHO-K1 cells)
Type: cell-based
Measurement Parameters: % activation of PD-L1 internalization = 1 − PD-L1 signal; 17 hours incubation

{"Molecule": "CN1CC(=O)N(C[C@@H]2CCC(=O)N2)c2ccc(-c3cccc(-c4cccc(-c5ccc6c(c5)N(C)CC(=O)N6C[C@@H]5CCC(=O)N5)c4Cl)c3Cl)cc21 [Compound 402]", "Units Symbol": "%", "Internalization": 2.40}
{"Molecule": "O=C(O)[C@H](CO)NCCN1C(=O)COc2cc(-c3cccc(-c4cccc(-c5cc(F)c6c(c5)OCC(=O)N6CCN[C@@H](CO)C(=O)O)c4Cl)c3Cl)cc(F)c21 [Compound 561]", "Units Symbol": "%", "Internalization": 5.30}
{"Molecule": "C[C@@H](CN1C(=O)COc2cc(-c3cccc(-c4cccc(-c5ccc6c(c5)OCC(=O)N6C[C@H](C)N[C@@H](CO)C(=O)O)c4Cl)c3Cl)ccc21)N[C@@H](CO)C(=O)O [Compound 550]", "Units Symbol": "%", "Internalization": 3.00}

* * *

Tested on: Hep3B-OS8-hPDL1 cells and CD3+ T cells
Protocol: Hep3B-OS8-hPDL1 and T cells co-culture assay (IFN-γ by ELISA)
Type: cell-based
Measurement Parameters: Homo sapiens, T-cell, 72 hours, read-out: Tumor and T Cell EC50 (nm)
Parameter EC50: see the listing below.
Assay Metric: EC50 (nM)

{"Molecule": "O=C(O)[C@H](CO)NCCN1C(=O)COc2cc(-c3cccc(-c4cccc(-c5ccc6c(c5)OCC(=O)N6C[C@@H]5CCCN5)c4Cl)c3Cl)ccc21 [Compound 533]", "Assay Result": 6.03}
{"Molecule": "O=C1COc2cc(-c3cccc(-c4cccc(-c5ccc6c(c5)OCC(=O)N6C[C@H]5CCCN5)c4Cl)c3Cl)ccc2N1C[C@H]1CCCN1 [Compound 529]", "Assay Result": 325}
{"Molecule": "O=C(O)[C@H](CO)NCCN1C(=O)COc2cc(-c3cccc(-c4cccc(-c5ccc6c(c5)OCC(=O)N6CCN[C@@H](CO)C(=O)O)c4Cl)c3Cl)ccc21 [Compound 465]", "Assay Result": 1.2}
{"Molecule": "O=C(O)[C@H](CO)NCCN1C(=O)COc2cc(-c3cccc(-c4cccc(-c5cc6c(cc5F)N(CCN[C@@H](CO)C(=O)O)C(=O)CO6)c4Cl)c3Cl)c(F)cc21 [Compound 554]", "Assay Result": 5.1}

* * *

Assayed Target: PD-1/PD-L1 (Homo sapiens (Human), UniProt Q9NZQ7)
Sequence (Q9NZQ7 19-238): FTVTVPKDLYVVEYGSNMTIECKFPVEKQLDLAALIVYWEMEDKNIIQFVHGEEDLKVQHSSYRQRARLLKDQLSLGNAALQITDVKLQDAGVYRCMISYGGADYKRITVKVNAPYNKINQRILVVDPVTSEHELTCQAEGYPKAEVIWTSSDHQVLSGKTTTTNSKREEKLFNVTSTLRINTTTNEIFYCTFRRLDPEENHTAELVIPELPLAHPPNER
Protocol: PD-1/PD-L1 Homogeneous Time-Resolved Fluorescence (HTRF) binding assay
Measurement Parameters: 3 nM PD1, 10 nM PD-L1, 25° C., PBS pH 7.4
Entry class follows IC50: class 1: < 6 nM; class 2: ≥ 6 nM and < 200 nM; class 3: ≥ 200 nM

{"Molecule": "O=C(O)C1CCN(CCN2C(=O)COc3cc(-c4cccc(-c5cccc(-c6ccc7c(c6)OCC(=O)N7CCNCCO)c5Cl)c4Cl)ccc32)C1 (centres unmarked) [Compound 493]", "Assigned Class": "class 1"}
{"Molecule": "O=C(O)CCCCNCCN1C(=O)COc2cc(-c3cccc(-c4cccc(-c5ccc6c(c5)OCC(=O)N6CCNCCCCC(=O)O)c4Cl)c3Cl)ccc21 [Compound 490]", "Assigned Class": "class 1"}
{"Molecule": "O=C1CC[C@@H](CN2C(=O)COc3nc(-c4cccc(-c5cccc(-c6ccc7c(n6)OCC(=O)N7C[C@@H]6CCC(=O)N6)c5Cl)c4Cl)ccc32)N1 [Compound 457]", "Assigned Class": "class 2"}
{"Molecule": "O=C1CC(CN2C(=O)COc3cc(-c4cccc(-c5cccc(-c6ccc7c(c6)OCC(=O)N7C[C@@H]6CCC(=O)N6)c5Cl)c4Cl)ccc32)CN1 (some centres unmarked) [Compound 450]", "Assigned Class": "class 2"}
{"Molecule": "O=C1COc2cc(-c3cccc(-c4cccc(-c5ccc6c(c5)OCC(=O)N6C[C@@H]5CCCN5)c4Cl)c3Cl)ccc2N1CCN1CC[C@H](O)C1 [Compound 515]", "Assigned Class": "class 2"}
{"Molecule": "O=C1COc2cc(-c3cccc(-c4cccc(-c5ccc6c(c5)OCC(=O)N6CCO)c4Cl)c3Cl)ccc2N1CCO [Compound 378]", "Assigned Class": "class 2"}
{"Molecule": "CC(=O)N1CCC(N2C(=O)COc3cc(-c4cccc(-c5cccc(-c6ccc7c(c6)OCC(=O)N7C6CCN(C(C)=O)CC6)c5Cl)c4Cl)ccc32)CC1 [Compound 408]", "Assigned Class": "class 3"}
{"Molecule": "Nc1cc2c(cc1-c1cccc(-c3cccc(-c4cc5c(cc4N)N(C[C@@H]4CCC(=O)N4)C(=O)CO5)c3Cl)c1Cl)OCC(=O)N2C[C@@H]1CCC(=O)N1 [Compound 354]", "Assigned Class": "class 3"}
{"Molecule": "O=C(O)C1CCN(CCN2C(=O)COc3cc(-c4cccc(-c5cccc(-c6ccc7c(c6)OCC(=O)N7CCN6CCC(C(=O)O)C6)c5Cl)c4Cl)ccc32)C1 (centres unmarked) [Compound 469]", "Assigned Class": "class 1"}
{"Molecule": "O=C(O)[C@@H](CO)NCCN1C(=O)COc2cc(-c3cccc(-c4cccc(-c5ccc6c(c5)OCC(=O)N6CCN[C@H](CO)C(=O)O)c4Cl)c3Cl)ccc21 [Compound 483]", "Assigned Class": "class 2"}
{"Molecule": "O=C1COc2cc(-c3cccc(-c4cccc(-c5ccc6c(c5)OCC(=O)N6CCn5cccn5)c4Cl)c3Cl)ccc2N1CCn1cccn1 [Compound 375]", "Assigned Class": "class 3"}
{"Molecule": "O=C1CC[C@@H](CN2C(=O)COc3cc(-c4cccc(-c5cccc(-c6ccc7c(c6)OCC(=O)N7CCN6CC[C@H](O)C6)c5Cl)c4Cl)ccc32)N1 [Compound 492]", "Assigned Class": "class 1"}
{"Molecule": "O=C1N[C@@H](CN2C(=O)COc3cc(-c4cccc(-c5cccc(-c6ccc7c(c6)OCC(=O)N7C[C@H]6COC(=O)N6)c5Cl)c4Cl)ccc32)CO1 [Compound 413]", "Assigned Class": "class 2"}
{"Molecule": "O=C1COc2cc(-c3cccc(-c4cccc(-c5ccc6c(c5)OCC(=O)N6Cc5nn[nH]n5)c4Cl)c3Cl)ccc2N1Cc1nn[nH]n1 [Compound 412]", "Assigned Class": "class 3"}
{"Molecule": "CN(CCO)CCN1C(=O)COc2cc(-c3cccc(-c4cccc(-c5ccc6c(c5)OCC(=O)N6CCN(C)CCO)c4Cl)c3Cl)ccc21 [Compound 471]", "Assigned Class": "class 1"}
{"Molecule": "O=C1COc2cc(-c3cccc(-c4cccc(-c5ccc6c(c5)OCC(=O)N6CCN5CCNC5=O)c4Cl)c3Cl)ccc2N1 [Compound 385]", "Assigned Class": "class 3"}
{"Molecule": "O=C(O)CCNCCN1C(=O)COc2cc(-c3cccc(-c4cccc(-c5ccc6c(c5)OCC(=O)N6CCN5CC[C@H](O)C5)c4Cl)c3Cl)ccc21 [Compound 491]", "Assigned Class": "class 1"}
{"Molecule": "O=C1COc2cc(-c3cccc(-c4cccc(-c5ccc6c(c5)OCC(=O)N6CCn5cncn5)c4Cl)c3Cl)ccc2N1CCn1cncn1 [Compound 374]", "Assigned Class": "class 2"}
{"Molecule": "O=C1CC[C@@H](CN2C(=O)COc3cc(-c4cccc(-c5cccc(-c6ccc7c(c6)OCC(=O)N7CCN6C[C@H](O)C[C@@H]6C(=O)O)c5Cl)c4Cl)ccc32)N1 [Compound 488]", "Assigned Class": "class 2"}
{"Molecule": "CC1(C)Oc2cc(-c3cccc(-c4cccc(-c5ccc6c(c5)OC(C)(C)C(=O)N6C[C@@H]5CCC(=O)N5)c4Cl)c3Cl)ccc2N(C[C@@H]2CCC(=O)N2)C1=O [Compound 372]", "Assigned Class": "class 3"}
{"Molecule": "N#CCN1C(=O)COc2cc(-c3cccc(-c4cccc(-c5ccc6c(c5)OCC(=O)N6CC#N)c4Cl)c3Cl)ccc21 [Compound 397]", "Assigned Class": "class 3"}
{"Molecule": "O=C1CC[C@@H](CN2CCCc3cc(-c4cccc(-c5cccc(-c6ccc7c(c6)CCCN7C[C@@H]6CCC(=O)N6)c5Cl)c4Cl)ccc32)N1 [Compound 303]", "Assigned Class": "class 2"}

* * *

Assayed Target: PD-1/PD-L1 (Homo sapiens (Human))
Protocol: PD-1/PD-L1 Homogeneous Time-Resolved Fluorescence (HTRF) binding assay
Measurement Parameters: 3 nM PD1, 10 nM PD-L1, 25° C., PBS pH 7.4
pIC50: −log10 of the molar value.
Assay Metric: pIC50

{"Compound": "O=C(O)C1CCC(=O)N1CCN1C(=O)COc2cc(-c3cccc(-c4cccc(-c5ccc6c(c5)OCC(=O)N6CCN5C(=O)CCC5C(=O)O)c4Cl)c3Cl)ccc21 (centres unmarked) [Compound 573]", "Comparison Operator": "=", "Assay Result": 6.54}
{"Compound": "O=C1CC[C@@H](CN2C(=O)COc3nc(-c4cccc(-c5cccc(-c6cnc7c(n6)OCC(=O)N7C[C@@H]6CCC(=O)N6)c5Cl)c4Cl)cnc32)N1 [Compound 466]", "Comparison Operator": "=", "Assay Result": 8.30}
{"Compound": "CN(CCN1C(=O)COc2cc(-c3cccc(-c4cccc(-c5ccc6c(c5)OCC(=O)N6CCN(C)C[C@@H]5CCC(=O)N5)c4Cl)c3Cl)ccc21)C[C@@H]1CCC(=O)N1 [Compound 460]", "Comparison Operator": "=", "Assay Result": 8.00}
{"Compound": "COC(=O)N[C@H](C(=O)N1CCC[C@H]1CN1C(=O)COc2cc(-c3cccc(-c4cccc(-c5ccc6c(c5)OCC(=O)N6C[C@@H]5CCCN5C(=O)[C@@H](NC(=O)OC)C(C)C)c4Cl)c3Cl)ccc21)C(C)C [Compound 422]", "Comparison Operator": "≤", "Assay Result": 5.52}
{"Compound": "NC(=O)C[C@H](NCCN1C(=O)COc2cc(-c3cccc(-c4cccc(-c5ccc6c(c5)OCC(=O)N6CCN[C@@H](CC(N)=O)C(=O)O)c4Cl)c3Cl)ccc21)C(=O)O [Compound 570]", "Comparison Operator": "=", "Assay Result": 7.96}
